- Tested on: RARb homodimer (NR concentration 270 nM)
- measurement description: PBM binding z-score (relative to random genomic background probes); higher = stronger binding; sequences stand for … in GC…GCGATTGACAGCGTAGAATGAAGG
Class membership depends on PBM binding z-score alone; the intervals are lower: < 1; middle: ≥ 1 and < 2; upper: ≥ 2

input: Hey, which category is "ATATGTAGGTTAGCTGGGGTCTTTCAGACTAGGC" in, do you know?
output: lower

input: Which bin, given its PBM binding z-score, does "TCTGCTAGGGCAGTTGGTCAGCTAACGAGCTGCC" occupy?
output: lower

input: Record "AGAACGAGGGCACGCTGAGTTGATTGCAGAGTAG" — which class?
output: middle

---

- Tested on: PPARg:RXRa IVT, anti-PPARg (NR concentration 270 nM, RXRa partner concentration 90 nM)
- measurement description: PBM binding z-score (relative to random genomic background probes); higher = stronger binding; sequences stand for … in GC…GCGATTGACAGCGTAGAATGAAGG
measurement name: PBM binding z-score
Output: the number by itself.

These recorded examples may help you get a feel for the data.
| sequence content | measurement name | value |
| --- | --- | --- |
| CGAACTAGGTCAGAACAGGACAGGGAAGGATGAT | PBM binding z-score | 7.39 |
| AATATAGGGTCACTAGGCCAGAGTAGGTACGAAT | PBM binding z-score | 6.14 |
| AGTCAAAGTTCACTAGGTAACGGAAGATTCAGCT | PBM binding z-score | 4.85 |
| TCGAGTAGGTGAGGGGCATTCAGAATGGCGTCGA | PBM binding z-score | 3.75 |

input: Lab note: record PBM binding z-score of "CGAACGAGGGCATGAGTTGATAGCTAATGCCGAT" tested on PPARg:RXRa IVT, anti-PPARg (NR concentration 270 nM, RXRa partner concentration 90 nM).
output: 2.2

input: Fetch value of PBM binding z-score on PPARg:RXRa IVT, anti-PPARg (NR concentration 270 nM, RXRa partner concentration 90 nM) for "TTACCACGGTGAAAGGTCGTTGATGCACGCCTTG" .
output: 3.21

input: Fill in PBM binding z-score for "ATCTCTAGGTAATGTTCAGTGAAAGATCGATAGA" tested with PPARg:RXRa IVT, anti-PPARg (NR concentration 270 nM, RXRa partner concentration 90 nM).
output: 1.63

input: GET PBM binding z-score | system: PPARg:RXRa IVT, anti-PPARg (NR concentration 270 nM, RXRa partner concentration 90 nM) | item: "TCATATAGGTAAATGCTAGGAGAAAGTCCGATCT"
output: 1.59

input: # lookup: PPARg:RXRa IVT, anti-PPARg (NR concentration 270 nM, RXRa partner concentration 90 nM) PBM binding z-score, key = "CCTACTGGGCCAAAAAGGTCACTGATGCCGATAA"
output: 4.39

input: Give reported PBM binding z-score for "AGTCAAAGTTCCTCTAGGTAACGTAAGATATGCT" (PPARg:RXRa IVT, anti-PPARg (NR concentration 270 nM, RXRa partner concentration 90 nM))
output: 1.14

input: Fill: PBM binding z-score (PPARg:RXRa IVT, anti-PPARg (NR concentration 270 nM, RXRa partner concentration 90 nM)) for this sequence "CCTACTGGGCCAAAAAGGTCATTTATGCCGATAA"
output: 3.95

input: // output PBM binding z-score; input "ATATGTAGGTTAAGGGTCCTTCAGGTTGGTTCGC" ; system PPARg:RXRa IVT, anti-PPARg (NR concentration 270 nM, RXRa partner concentration 90 nM)
output: 7.29
